- PROTOCOL DESCRIPTION: Half life of the compound at 25 degC at pH 7 by HPLC analysis
- Type: physicochemical
ENDPOINT LABEL: half-life

half-life lookup needed for Nc1ncn([C@@H]2O[C@H](CO)[C@@H](O)[C@H]2O)c(=O)n1 , thanks. 48 h

====

Kindly supply the reported selectivity ratio values for the records listed here.
- PROTOCOL DESCRIPTION: Therapeutic index, ratio of toxicity in ip dosed mouse allografted with mouse L1210 cells assessed as optimal dose required for maximum increase in life span to antitumor activity against mouse L1210 cells allografted in ip dosed mouse assessed as lowest dose required for 40% increase in life span
- Format: organism-based
- CONDITION DESCRIPTION: in vivo, read-out: TI
Answers are plain numbers.

Cl.NC1=NC(=O)N([C@@H]2O[C@H](CO)[C@@H](O)[C@H]2O)CN1; 10

Consider now this further molecule.
Please report the recorded selectivity ratio for Nc1ncn([C@@H]2O[C@H](CO)[C@@H](O)[C@H]2O)c(=O)n1 . 7.5
